Each recorded value in this set is attributed to ChEMBL document CHEMBL4715824.

Molecular target: UniProt:Q99536
Sequence (Q99536 whole entry): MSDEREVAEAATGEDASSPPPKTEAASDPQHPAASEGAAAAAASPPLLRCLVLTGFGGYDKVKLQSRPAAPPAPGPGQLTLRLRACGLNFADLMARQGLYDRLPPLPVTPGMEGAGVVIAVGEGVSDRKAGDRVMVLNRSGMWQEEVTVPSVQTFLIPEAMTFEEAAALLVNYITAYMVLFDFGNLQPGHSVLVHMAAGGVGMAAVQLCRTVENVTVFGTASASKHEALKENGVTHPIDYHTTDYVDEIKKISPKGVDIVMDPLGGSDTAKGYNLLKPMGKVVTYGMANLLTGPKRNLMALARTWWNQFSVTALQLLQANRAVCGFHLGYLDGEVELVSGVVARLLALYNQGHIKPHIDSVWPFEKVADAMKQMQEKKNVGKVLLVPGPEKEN
Assay: Covalent binding affinity to VAT1 at Cys residue in human NCI-H358 cells assessed as reduction of log2 H/L ratio for tryptic peptide […] incubated for 4 hrs followed by cell lysis and subsequently labelled with light thiol probe N-((S)-18-iodo-11-isopropyl-10,13,17-trioxo-3,6-dioxa-9,12,16-triazaoctadecyl)-6-((4R,5S)-5-methyl-2-oxoimidazolidin-4-yl)hexanamide and heavy thiol probe 4 for 1 hr under dark conditions followed by tryptic digestion for overnight and measured by discovery ABPP based nano LC-MS/MS analysis
observable: IC50 (µM)
Quick reminder: number only, in µM, skip the unit.

// query Return IC50 measured with UniProt:Q99536 given this compound: C=CC(=O)N1CCN(c2ncnc3c(F)c(-c4c(O)cccc4F)c(Cl)cc23)CC1
// result 4.48
